Assayed System: PKN3 (M.tuberculosis) (UniProt Q6P5Z2)
Sequence (Q6P5Z2 whole entry, looked up): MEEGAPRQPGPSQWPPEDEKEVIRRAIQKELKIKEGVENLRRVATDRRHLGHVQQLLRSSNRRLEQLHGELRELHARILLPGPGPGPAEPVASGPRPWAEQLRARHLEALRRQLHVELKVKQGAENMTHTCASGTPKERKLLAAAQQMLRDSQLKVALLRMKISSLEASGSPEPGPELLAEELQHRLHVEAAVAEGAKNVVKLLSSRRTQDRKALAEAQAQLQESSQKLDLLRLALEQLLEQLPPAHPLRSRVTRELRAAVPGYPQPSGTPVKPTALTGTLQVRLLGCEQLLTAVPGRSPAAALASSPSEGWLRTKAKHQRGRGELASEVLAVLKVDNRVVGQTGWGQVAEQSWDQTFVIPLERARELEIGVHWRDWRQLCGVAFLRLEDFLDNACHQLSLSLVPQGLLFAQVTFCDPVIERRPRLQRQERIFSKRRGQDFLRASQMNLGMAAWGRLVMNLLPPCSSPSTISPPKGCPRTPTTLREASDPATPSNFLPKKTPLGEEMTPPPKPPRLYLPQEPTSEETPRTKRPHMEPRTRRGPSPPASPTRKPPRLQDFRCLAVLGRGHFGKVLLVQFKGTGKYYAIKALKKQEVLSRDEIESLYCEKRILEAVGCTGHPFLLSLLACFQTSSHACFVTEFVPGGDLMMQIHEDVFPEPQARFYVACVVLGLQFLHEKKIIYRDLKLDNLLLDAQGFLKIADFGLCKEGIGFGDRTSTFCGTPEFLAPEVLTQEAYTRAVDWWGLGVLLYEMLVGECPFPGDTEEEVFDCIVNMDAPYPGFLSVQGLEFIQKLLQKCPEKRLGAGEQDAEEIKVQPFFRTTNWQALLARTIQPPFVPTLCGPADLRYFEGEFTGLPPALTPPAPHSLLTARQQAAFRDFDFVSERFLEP
Assay Method Text: KINOMEscan competition binding
Applied Conditions: compound 10.0 µM
Value Kind: kinase still bound, per cent of control (%)
Field: numeric (%). Do not append units.

C=CC(=O)Nc1cccc(Nc2nc(N[C@H]3CC[C@H](N(C)C)CC3)nc3c2ncn3C(C)C)c1 :: 82
O=C1Nc2ccc(I)cc2/C1=C/c1cc(Br)c(O)c(Br)c1 :: 64
Nc1ccc(-c2ccc3ncc4ccc(=O)n(-c5cccc(C(F)(F)F)c5)c4c3c2)cn1 :: 63
C=CC(=O)Nc1cc(NC(=O)c2ccc(C)c(NC(=O)c3ccno3)c2)cc(C(F)(F)F)c1 :: 75
O=C(NC1CC1)c1cccc(-c2ccc3c(NC(=O)C4CC4)n[nH]c3c2)c1 :: 15
Cc1ccc2nc(NCCN)c3ncc(C)n3c2c1 :: 0

So what does the record say about kinase still bound, per cent of control for Cc1ccc(NC(=O)c2cccc(C(C)(C)C#N)c2)cc1Nc1ccc2ncn(C)c(=O)c2c1 ?
100

So what does the record say about kinase still bound, per cent of control for CCC(=O)N1CCN(c2ccc(-n3c(=O)ccc4cnc5ccc(-c6cnc7ccccc7c6)cc5c43)cc2C(F)(F)F)CC1 ?
64

So what does the record say about kinase still bound, per cent of control for COc1cc(N2CCN(C)CC2)ccc1Nc1nc(N)c(C(=O)c2c(Cl)cccc2Cl)s1 ?
80

So what does the record say about kinase still bound, per cent of control for O=C(O)c1ccc(Nc2ncc3c(n2)-c2ccc(Cl)cc2C(c2c(F)cccc2F)=NC3)cc1 ?
96

So what does the record say about kinase still bound, per cent of control for CCOc1cc2ncc(C#N)c(Nc3ccc(OCc4ccccn4)c(Cl)c3)c2cc1NC(=O)/C=C/CN(C)C ?
100

---

Assayed System: HIPK3 (human)
Assay Method Text: KINOMEscan competition binding
Applied Conditions: compound 10.0 µM
Value Kind: kinase still bound, per cent of control (%)
Field: numeric (%). Do not append units.

C[C@@H](Oc1cc(-n2cnc3ccc(CN4CCN(C)CC4)cc32)sc1C(N)=O)c1ccccc1C(F)(F)F :: 37
CCC(=O)N1CCN(c2ccc(-n3c(=O)ccc4cnc5ccc(-c6cnc7ccccc7c6)cc5c43)cc2C(F)(F)F)CC1 :: 86
Cn1c(=O)n(-c2ccc(C(C)(C)C#N)cc2)c2c3cc(-c4cnc5ccccc5c4)ccc3ncc21 :: 100

What is its kinase still bound, per cent of control for HIPK3 (human)? Entry: C=CC(=O)Nc1cccc(Nc2nc(N[C@H]3CC[C@H](N(C)C)CC3)nc3c2ncn3C(C)C)c1
26

What is its kinase still bound, per cent of control for HIPK3 (human)? Entry: CCCS(=O)(=O)Nc1ccc(F)c(C(=O)c2c[nH]c3ncc(-c4ccc(Cl)cc4)cc23)c1F
100

What is its kinase still bound, per cent of control for HIPK3 (human)? Entry: COc1cc(C(=O)NC2CCN(C)CC2)ccc1Nc1ncc2c(n1)N(C1CCCC1)CCC(=O)N2C(C)C
100

What is its kinase still bound, per cent of control for HIPK3 (human)? Entry: N#Cc1c(NC(=O)c2cccc3ccccc23)sc2c1CCCC2
43

What is its kinase still bound, per cent of control for HIPK3 (human)? Entry: Cc1cc([C@@H](C)Nc2ccccc2C(=O)O)c2nc(N3CCOCC3)cc(=O)n2c1
89

What is its kinase still bound, per cent of control for HIPK3 (human)? Entry: CCN1CCN(Cc2ccc(Nc3ncc4c(n3)N(C)c3ccccc3C(=O)N4C)cc2C(F)(F)F)CC1
76

Reference for the values: the kinase profiling compilation of Christmann-Franck et al. (2016)
